Reference source: ChEMBL document CHEMBL1201862

Tested on: IGROV-1
Assay: NCI tumour cell line growth inhibition, 48 h
Where a name gives a salt, the structure may show the parent alone. The source made the active and inactive calls. Cut-off read from the data, not from the text of the source: active = GI50 up to about 1.1 µM and inactive = higher.
recorded_endpoint: GI50

>  <compound>
S=c1sc2c(S)nc(S)nc2n1-c1ccccc1

>  <test_value>
> 100 µM (inactive)

$$$$
>  <compound>
O=C(Nc1ccc(N2C(=O)CSC2c2cccs2)cc1)c1ccc(N2C(=O)CSC2c2cccs2)cc1 (stereo not drawn)

>  <test_value>
> 100 µM (inactive)

$$$$
>  <compound>
C1CCC2(CC1)O[C@@H]1[C@@H](O2)[C@@H](O[C@H]2O[C@@H]3COC4(CCCCC4)O[C@H]3[C@@H]3OC4(CCCCC4)O[C@@H]23)O[C@@H]2COC3(CCCCC3)O[C@@H]12

>  <test_value>
> 100 µM (inactive)

$$$$
>  <compound>
N#CC(C#N)=CNC(N)=S

>  <test_value>
> 100 µM (inactive)

$$$$
>  <compound>
O=C(Nn1c(-c2cccs2)nc2ccc(I)cc2c1=O)c1ccccc1

>  <test_value>
20.2 µM (inactive)

$$$$
>  <compound>
COc1ccc2cc3[n+](cc2c1OC)CCc1cc2c(cc1-3)OCO2 [BERBERINE SULFATE]

>  <test_value>
36 µM (inactive)

$$$$
>  <compound>
O=C(OC[C@H]1O[C@@H](OC(=O)c2cc(O)c(O)c(O)c2)[C@H](OC(=O)c2cc(O)c(O)c(O)c2)[C@@H](OC(=O)c2cc(O)c(O)c(O)c2)[C@@H]1OC(=O)c1cc(O)c(O)c(O)c1)c1cc(O)c(O)c(O)c1

>  <test_value>
5.73 µM (inactive)

$$$$
>  <compound>
COc1cc(/C=N/n2c(-c3ccccc3)nn(C(C)=O)c2=O)cc(OC)c1OC

>  <test_value>
2.11 µM (inactive)

$$$$
